hERG current change (%, negative = inhibition) at 1uM values by entry
Target Or Test System: human ether-à-go-go-related gene (hERG) potassium channel (human, UniProt Q12809)
Sequence (Q12809 whole entry, looked up): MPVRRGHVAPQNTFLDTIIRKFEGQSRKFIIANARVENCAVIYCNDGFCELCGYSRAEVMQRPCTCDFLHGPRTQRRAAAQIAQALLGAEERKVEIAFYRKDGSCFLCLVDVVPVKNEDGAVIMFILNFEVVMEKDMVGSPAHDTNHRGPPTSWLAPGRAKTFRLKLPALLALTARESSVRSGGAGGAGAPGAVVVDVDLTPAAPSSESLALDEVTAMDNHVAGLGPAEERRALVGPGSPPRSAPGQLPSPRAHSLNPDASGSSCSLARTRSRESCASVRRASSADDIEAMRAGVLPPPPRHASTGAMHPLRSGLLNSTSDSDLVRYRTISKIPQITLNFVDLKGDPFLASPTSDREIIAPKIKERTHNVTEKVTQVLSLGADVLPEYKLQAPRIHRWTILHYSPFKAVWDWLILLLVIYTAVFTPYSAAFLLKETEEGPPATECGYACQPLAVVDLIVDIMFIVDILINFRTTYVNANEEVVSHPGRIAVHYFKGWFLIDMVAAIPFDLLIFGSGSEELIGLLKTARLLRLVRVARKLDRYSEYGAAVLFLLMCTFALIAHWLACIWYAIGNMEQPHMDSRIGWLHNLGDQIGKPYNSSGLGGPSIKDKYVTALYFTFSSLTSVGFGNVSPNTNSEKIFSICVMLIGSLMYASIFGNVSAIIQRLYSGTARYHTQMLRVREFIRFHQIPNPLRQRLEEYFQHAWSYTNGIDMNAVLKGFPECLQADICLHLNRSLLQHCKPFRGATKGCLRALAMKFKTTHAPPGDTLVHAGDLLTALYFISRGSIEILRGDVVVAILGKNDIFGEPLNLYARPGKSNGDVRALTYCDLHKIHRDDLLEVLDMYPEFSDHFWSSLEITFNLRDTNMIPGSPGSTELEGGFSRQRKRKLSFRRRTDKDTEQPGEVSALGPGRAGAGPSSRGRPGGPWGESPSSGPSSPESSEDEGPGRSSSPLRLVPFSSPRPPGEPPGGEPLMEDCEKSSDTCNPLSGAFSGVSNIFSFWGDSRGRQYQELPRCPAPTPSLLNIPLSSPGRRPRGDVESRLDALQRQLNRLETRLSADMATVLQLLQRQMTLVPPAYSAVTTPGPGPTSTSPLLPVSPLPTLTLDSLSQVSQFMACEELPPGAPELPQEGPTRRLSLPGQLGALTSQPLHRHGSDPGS
Assay Name: primary screen, population patch clamp on CHO cells stably expressing hERG; higher = less effect of the substance
About 2,200 (0.71%) of roughly 310,000 compounds showed an effect of 50% or more. Effects have a minus sign here. The full list was thinned out, with strong results kept by preference.
Assay Readout: hERG current change (%, negative = inhibition) at 1uM (%)

# Compound, Reading
data = [
    ("Cc1ccc(CSc2nnc3ccc(-c4ccncc4)nn23)cc1", -3.17),
    ("Fc1cccc(Cl)c1CSc1ccc2nnc(-c3ccccn3)n2n1", 1.37),
    ("CCOC(=O)C1=C(Cc2ccc(F)cc2)C(=O)c2ccccc2C1=O", 6.27),
    ("CCN(CC)c1ccc(C(=O)c2ccccc2C(=O)O)c(O)c1", 11.7),
    ("Cc1cccc(CSc2ccc3nnc(-c4cccnc4)n3n2)c1", -16),
    ("CN(C)CCCNCC(=O)Nc1ccc(Cl)cc1C(=O)c1ccccc1.O=C(O)C(=O)O", -21.2),
    ("O=C(N/C(=C/c1cccc([N+](=O)[O-])c1)C(=O)N1CCCC1)c1ccccc1", -0.775),
    ("Cc1cc2c(cc1S(=O)(=O)NC1CCCCC1C)OCC(=O)N2 (centres unmarked)", 5.01),
    ("Brc1ccc(CSc2ccc3nnc(-c4ccccn4)n3n2)cc1", -12.7),
    ("Cc1ccccc1NC(=O)CN1CCN(C(=O)c2ccco2)CC1", 5.5),
    ("O=C(CCC(F)(F)F)N1CCCC(CO)(CCc2ccccc2)C1 (centres unmarked)", -3.42),
    ("CSCCC(NC(=O)OCc1ccccc1)C(=O)NCc1cccnc1 (centres unmarked)", 9.52),
    ("O=C(N/C(=C\\c1ccc([N+](=O)[O-])cc1)C(=O)N1CCCCC1)c1ccc(Br)o1", -53.4),
    ("COCCOC(=O)c1c(NC(=O)CNc2ccc(C)c(F)c2)sc(C(N)=O)c1C", 11),
    ("CCOCCN1CCN(c2c(CC)c(C)nc3cc(-c4cc(OC)cc(OC)c4)nn23)CC1", -14),
    ("Fc1ccc(CSc2ccc3nnc(-c4ccccn4)n3n2)cc1", -92.9),
    ("O=C(N/C(=C\\c1ccccc1)C(=O)N1CCCCCC1)c1ccccc1", 21.1),
    ("O=C(CSc1ccc2nnc(-c3ccccn3)n2n1)Nc1cccc(F)c1", -7.83),
    ("CC(C)(C)NC(=O)/C(=C\\C=C\\c1ccccc1)NC(=O)c1ccc([N+](=O)[O-])cc1", 11.2),
    ("CN1CCN(C(=O)/C(=C/c2cccc([N+](=O)[O-])c2)NC(=O)c2ccccc2)CC1", -46.5),
    ("Cc1ccc(NC(=O)C2C(c3ccccc3)C2(Cl)Cl)c(C)c1 (centres unmarked)", 2.95),
    ("CCOC(=O)C1CCN(Cc2cn[nH]c2-c2ccc(C)cc2)CC1", -23.6),
    ("CCN(CC)S(=O)(=O)c1cccc(NC(=O)c2ccc(C#N)cc2)c1", 3.29),
    ("Fc1ccc(CSc2nnc3ccc(-c4ccncc4)nn23)cc1", -61.2),
    ("COC(=O)C(CC(C)C)NC(=O)c1ccc([N+](=O)[O-])cc1 (centres unmarked)", 0.193),
    ("CCOc1ccc(CCNC(=O)c2cc3sccc3n2CC)cc1OCC", 14.1),
    ("CCN(CC)S(=O)(=O)c1cccc(C(=O)Nc2ccccc2)c1", -0.175),
    ("Cc1ccc(S(=O)(=O)Nc2cccc(C(=O)NCC3(N4CCCCC4)CCCCC3)c2)cc1F", -76.4),
    ("Cc1ccc(CSc2ccc3nnc(-c4cccnc4)n3n2)cc1", -70.6),
    ("COc1ccc(CN(C)S(=O)(=O)c2nnc(NC(=O)c3cccc(F)c3)s2)cc1OC", 6.86),
    ("Cc1cc2oc3c(c(=O)c2cc1C)C(c1ccc(C(C)C)cc1)N(CCCN1CCOCC1)C3=O (centres unmarked)", 13),
    ("CCOc1ccc(-c2nc(-c3ccccc3C)no2)cc1", 10.9),
    ("Cl.Nc1cc(F)ccc1N1CCCCCC1", 12.7),
    ("Cc1ccccc1C(=O)Nc1ccccc1C(=O)N1CCC(C)CC1", 11.7),
    ("CC(C)(C)c1ccc(C(=O)NCCc2ccccc2)cc1", 6.65),
    ("CN(C)CCCNC(=O)/C(=C\\C=C\\c1ccccc1)NC(=O)c1ccc([N+](=O)[O-])cc1", -42),
    ("CCN(CC)S(=O)(=O)c1cccc(C(=O)Nc2ccc(C#N)cc2)c1", -74),
    ("CN(C)c1ccc(C(=O)c2ccccc2C(=O)O)c(O)c1", 13.2),
]
